// reported MIC per item
test system: K. pneumoniae S 50; test: MIC on Muller Hinton Agar (CLSI); assay type: cell-based; conditions: Klebsiella pneumoniae, S50, agent alone, enzymes SHV, TEM, NDM-1, read-out: MIC

Some molecules with recorded MIC:
molecule	result
O=C(NNC(=O)[C@@H]1CC[C@@H]2CN1C(=O)N2OS(=O)(=O)O)[C@@H]1CCCNC1	0.5 µg/mL
CO/N=C(\C(=O)N[C@@H]1C(=O)N2C(C(=O)[O-])=C(C[N+]3(C)CCCC3)CS[C@H]12)c1csc(N)n1 [Cefepime, cefepime]	> 32 µg/mL
C[C@@H](O)[C@H]1C(=O)N2C(C(=O)O)=C(S[C@@H]3CN[C@H](C(=O)N(C)C)C3)[C@H](C)[C@H]12	> 32 µg/mL

Attention now turns to another entry.
Prompt: Let me know recorded MIC for `NCC[C@H](O)C(=O)N[C@@H]1C[C@H](N)[C@@H](O[C@H]2O[C@H](CN)[C@@H](O)[C@H](O)[C@H]2O)[C@H](O)[C@H]1O[C@H]1O[C@H](CO)[C@@H](O)[C@H](N)[C@H]1O` , thanks.
Response: > 64 µg/mL

----------
test system: E. coli S 33; assay: MIC on Muller Hinton Agar (CLSI); type: cell-based; conditions: Escherichia coli, S33, agent alone, enzymes TEM, NDM-1, read-out: MIC
// reported MIC per item

compound	MIC
C[C@@H](O)[C@H]1C(=O)N2C(C(=O)O)=C(S[C@@H]3CN[C@H](C(=O)N(C)C)C3)[C@H](C)[C@H]12	> 32 µg/mL

Prompt: Let me know recorded MIC for CO/N=C(\C(=O)N[C@@H]1C(=O)N2C(C(=O)[O-])=C(C[N+]3(C)CCCC3)CS[C@H]12)c1csc(N)n1 [Cefepime, cefepime] , thanks.
Response: > 32 µg/mL

Prompt: Let me know recorded MIC for `NCC[C@H](O)C(=O)N[C@@H]1C[C@H](N)[C@@H](O[C@H]2O[C@H](CN)[C@@H](O)[C@H](O)[C@H]2O)[C@H](O)[C@H]1O[C@H]1O[C@H](CO)[C@@H](O)[C@H](N)[C@H]1O` , thanks.
Response: > 64 µg/mL

Prompt: Let me know recorded MIC for `O=C(NNC(=O)[C@@H]1CC[C@@H]2CN1C(=O)N2OS(=O)(=O)O)[C@@H]1CCCNC1` , thanks.
Response: 0.25 µg/mL

----------
system: E. coli S 16; test: MIC on Muller Hinton Agar (CLSI); assay type: cell-based; conditions: Escherichia coli, S16, agent alone, enzymes CMY type, TEM, DHA, read-out: MIC
experimental readout: MIC

Some compounds with recorded MIC:
compound	MIC
CO/N=C(\C(=O)N[C@@H]1C(=O)N2C(C(=O)[O-])=C(C[N+]3(C)CCCC3)CS[C@H]12)c1csc(N)n1 [Cefepime, cefepime]	> 32 µg/mL
NCC[C@H](O)C(=O)N[C@@H]1C[C@H](N)[C@@H](O[C@H]2O[C@H](CN)[C@@H](O)[C@H](O)[C@H]2O)[C@H](O)[C@H]1O[C@H]1O[C@H](CO)[C@@H](O)[C@H](N)[C@H]1O	> 64 µg/mL
C[C@@H](O)[C@H]1C(=O)N2C(C(=O)O)=C(S[C@@H]3CN[C@H](C(=O)N(C)C)C3)[C@H](C)[C@H]12	> 32 µg/mL

Attention now turns to another entry.
Prompt: Let me know recorded MIC for `O=C(NNC(=O)[C@@H]1CC[C@@H]2CN1C(=O)N2OS(=O)(=O)O)[C@@H]1CCCNC1` , thanks.
Response: 0.25 µg/mL
